target_entity: ΔF508-CFTR (Homo sapiens, UniProt P13569, DEL508-508)
Construct: host or cells: CFBE41o-, doxycycline-inducible
Sequence (P13569 with tags, fused parts or gaps DEL508-508): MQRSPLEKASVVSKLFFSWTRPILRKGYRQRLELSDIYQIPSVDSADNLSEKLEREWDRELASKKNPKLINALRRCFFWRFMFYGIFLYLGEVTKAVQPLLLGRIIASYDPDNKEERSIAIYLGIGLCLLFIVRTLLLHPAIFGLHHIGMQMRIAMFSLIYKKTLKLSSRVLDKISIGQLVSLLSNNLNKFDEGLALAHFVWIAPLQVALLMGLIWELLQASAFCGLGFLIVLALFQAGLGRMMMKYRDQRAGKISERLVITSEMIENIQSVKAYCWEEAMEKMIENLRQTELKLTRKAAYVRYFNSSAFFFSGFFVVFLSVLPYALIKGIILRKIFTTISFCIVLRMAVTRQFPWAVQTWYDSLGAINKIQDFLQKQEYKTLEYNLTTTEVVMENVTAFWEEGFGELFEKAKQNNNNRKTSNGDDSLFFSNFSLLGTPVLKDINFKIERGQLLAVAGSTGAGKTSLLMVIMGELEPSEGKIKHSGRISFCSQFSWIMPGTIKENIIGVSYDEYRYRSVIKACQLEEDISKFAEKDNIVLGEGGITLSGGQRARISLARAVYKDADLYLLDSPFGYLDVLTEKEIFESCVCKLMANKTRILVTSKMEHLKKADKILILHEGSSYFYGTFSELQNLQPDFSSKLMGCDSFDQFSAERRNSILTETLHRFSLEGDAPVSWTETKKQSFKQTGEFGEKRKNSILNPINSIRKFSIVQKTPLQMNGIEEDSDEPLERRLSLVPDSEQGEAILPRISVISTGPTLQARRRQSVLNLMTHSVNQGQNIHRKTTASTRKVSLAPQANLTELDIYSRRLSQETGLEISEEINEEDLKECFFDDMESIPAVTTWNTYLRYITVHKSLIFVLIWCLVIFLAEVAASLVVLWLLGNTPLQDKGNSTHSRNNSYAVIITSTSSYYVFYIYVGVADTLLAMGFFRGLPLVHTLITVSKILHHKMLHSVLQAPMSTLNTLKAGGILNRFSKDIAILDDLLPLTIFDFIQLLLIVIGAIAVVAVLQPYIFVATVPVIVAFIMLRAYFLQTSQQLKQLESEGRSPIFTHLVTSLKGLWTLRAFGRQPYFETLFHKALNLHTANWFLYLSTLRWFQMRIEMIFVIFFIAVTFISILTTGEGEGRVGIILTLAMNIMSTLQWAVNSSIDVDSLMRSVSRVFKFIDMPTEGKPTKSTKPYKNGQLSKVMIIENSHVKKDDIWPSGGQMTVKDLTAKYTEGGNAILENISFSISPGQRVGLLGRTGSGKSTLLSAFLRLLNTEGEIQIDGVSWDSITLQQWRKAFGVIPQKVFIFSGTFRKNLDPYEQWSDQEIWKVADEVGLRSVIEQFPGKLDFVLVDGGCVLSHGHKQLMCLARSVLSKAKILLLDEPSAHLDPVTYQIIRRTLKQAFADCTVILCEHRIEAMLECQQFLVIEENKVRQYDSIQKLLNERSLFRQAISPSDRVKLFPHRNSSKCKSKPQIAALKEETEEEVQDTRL
experiment: CFTR cell surface levels using HRP-tagged ΔF508-CFTR expressing CFBE cells, intrinsic corrector capacity
Format: cell-based
condition_details: HRP-tagged ΔF508-CFTR expressing CFBE cells; intrinsic corrector capacity (no co-corrector); 33° C., 20 hours
reported_endpoint: % Activation
Enter the number, and then the unit.

get_value(item= CC(C)c1nn(-c2ccc(F)cc2)c2nc(C(=O)O)cc(N3CCC(N4CCN(C)CC4)CC3)c12 [compound 753] , readout=% Activation) returns 215%

get_value(item= O=C(O)c1cc(OCC(F)(F)F)c2c(C3CCC3)nn(-c3ccccc3)c2n1 [compound 613] , readout=% Activation) returns 99.78%

get_value(item= COC1CCN(C2CCN(c3cc(C(=O)O)nc4c3c(C3CCC3)nn4-c3ccc(F)cc3)CC2)CC1 [compound 892] , readout=% Activation) returns 196.44%
